# System: SNB-19 CNS
# assay.details: NCI-60 one-dose screen, 48 h (100 = growth as untreated, 0 = no growth, -100 = all killed)
# condition.summary: 10 µM unless noted
About 83,000 compounds went through this panel and 20% of them were active in at least one assay; those are over-represented in the sample as a whole.
# if measured growth < 90%: yes (1)  # else: no (0)

molecule	label.value
CC(=O)c1ccc(Nc2nc(SCC(C)C)nc(-c3ccccc3)c2C#N)cc1	yes (1)
NC(N)=Nc1ccc(Oc2cccc(Nc3ccc(Cl)c(C(F)(F)F)c3)c2)cn1	yes (1)
Cc1occc1-c1nc2s/c(=C/c3ccc(-c4cc(C(F)(F)F)ccc4Cl)o3)c(=O)n2n1	no (0)
CCO/C=N/C1=C(C#N)C(c2ccc(Cl)cc2)c2sc3c(C)cccc3c2O1 (centres undefined)	yes (1)
CCCCCc1ccc(S(=O)(=O)Nc2cccc(-c3csc(NC(=O)CCCCCN4CCN(C)CC4)n3)c2)cc1	yes (1)
CCOC(=O)c1c(Nc2ccccc2)nn2c(-c3cccs3)ccnc12	no (0)

====

# System: CAKI-1 renal
# assay.details: NCI-60 one-dose screen, 48 h
# condition.summary: 10 µM unless noted
This is part of a sample that, as a whole, favours compounds with a hit. Of some 83,000 tested, about 20% had one in any assay. Activity calls are given as the source filed them. How the source made its calls: active means growth percent below 10; inactive means the rest.
Classes used: True for active, False for inactive

compound	target.of.assay	label.value
O=C(CN1CCN(c2cc(=O)[nH]c3ccc(F)cc23)CC1)Nc1ccc(Cl)cc1	CAKI-1 renal	False
COc1ccccc1N1CCN(C2=CC(=O)C(C)=C(C)C2=O)CC1	CAKI-1 renal	False
CCNC(=O)N1CCc2cc(OC)c(OCCc3ccc(OC)c(N)c3)cc2C1c1cc(C)c(C)cc1C (stereo not given)	CAKI-1 renal	False
c1ccc(C(c2nc3ncncc3[nH]2)N2CSc3nc4ncncc4n3C2)cc1 (stereo not given)	CAKI-1 renal	False
O=C1CC(=O)N2CSCN(C(c3ccccc3)c3nc4ncncc4[nH]3)C2=N1 (stereo not given)	CAKI-1 renal	False
CCCCc1nc(/C=N/Nc2nc(Nc3ccccc3)nc(Nc3ccc(S(N)(=O)=O)cc3)n2)c(Cl)[nH]1	CAKI-1 renal	False
C[C@@H](Nc1c(C#N)cnc2ccc(-c3cnc(Cl)c(NS(C)(=O)=O)c3)cc12)c1ccccc1	CAKI-1 renal	True
CCOC(=O)c1c(Nc2ccccc2)nn2c(-c3ccc(OC)cc3)ccnc12	CAKI-1 renal	False
COc1ccc(/C=N/NC(=O)c2cn(C3CC3)c3c(OC)c(N4CC5CCCNC5C4)c(F)cc3c2=O)cc1 (stereo not given)	CAKI-1 renal	False
Cc1ccc2c(c1)C(=O)/C(=C/c1cccc(F)c1)S2	CAKI-1 renal	False
COc1ccc(-c2cc(-c3ccc(Cl)cc3)c(C#N)c(=O)n2Cc2ccc(C(=O)O)cc2)cc1	CAKI-1 renal	False
COc1ccc(/C(N)=N/C(N)=N/c2nc3ccccc3s2)cc1	CAKI-1 renal	False
CCOC(=O)c1c(Nc2ccccc2)nn2c(-c3ccc(Cl)cc3)ccnc12	CAKI-1 renal	False
O=C(Cn1cc[n+](CC(=O)c2ccc(-c3ccccc3)cc2)c1)Nc1cccc2cccnc12	CAKI-1 renal	False
COc1ccc([C@@H]2c3[nH]c4ccccc4c3C[C@H]3C(=O)N(C4CCN(CC5CCCCC5)CC4)CC(=O)N23)c(OC)c1	CAKI-1 renal	False
COc1ccc([C@H]2[C@H](O)C(=O)N2c2cc(OC)c(OC)c(OC)c2)cc1F	CAKI-1 renal	False
C#CCNC1CCC(c2csc(C#C)n2)=C1C (stereo not given)	CAKI-1 renal	False
C=CC(=O)N1CCC=C(c2cc3c(N[C@H](C)c4ccccc4)ncnc3[nH]2)C1	CAKI-1 renal	False
COc1cc2oc(-c3cccc(NC(=O)c4cc(N)ccc4Cl)c3)cc(=O)c2c(OC)c1OC	CAKI-1 renal	False
CC(=O)c1ccc(Nc2nc(SCC(C)C)nc(-c3ccccc3)c2C#N)cc1	CAKI-1 renal	False

Recorded values, source PubChem BioAssay (NCI).
